- systemTested: Integrin alpha-V/beta-3 (Homo sapiens, UniProt P05106+P06756)
- Sequence (P05106 27-788 limits assumed): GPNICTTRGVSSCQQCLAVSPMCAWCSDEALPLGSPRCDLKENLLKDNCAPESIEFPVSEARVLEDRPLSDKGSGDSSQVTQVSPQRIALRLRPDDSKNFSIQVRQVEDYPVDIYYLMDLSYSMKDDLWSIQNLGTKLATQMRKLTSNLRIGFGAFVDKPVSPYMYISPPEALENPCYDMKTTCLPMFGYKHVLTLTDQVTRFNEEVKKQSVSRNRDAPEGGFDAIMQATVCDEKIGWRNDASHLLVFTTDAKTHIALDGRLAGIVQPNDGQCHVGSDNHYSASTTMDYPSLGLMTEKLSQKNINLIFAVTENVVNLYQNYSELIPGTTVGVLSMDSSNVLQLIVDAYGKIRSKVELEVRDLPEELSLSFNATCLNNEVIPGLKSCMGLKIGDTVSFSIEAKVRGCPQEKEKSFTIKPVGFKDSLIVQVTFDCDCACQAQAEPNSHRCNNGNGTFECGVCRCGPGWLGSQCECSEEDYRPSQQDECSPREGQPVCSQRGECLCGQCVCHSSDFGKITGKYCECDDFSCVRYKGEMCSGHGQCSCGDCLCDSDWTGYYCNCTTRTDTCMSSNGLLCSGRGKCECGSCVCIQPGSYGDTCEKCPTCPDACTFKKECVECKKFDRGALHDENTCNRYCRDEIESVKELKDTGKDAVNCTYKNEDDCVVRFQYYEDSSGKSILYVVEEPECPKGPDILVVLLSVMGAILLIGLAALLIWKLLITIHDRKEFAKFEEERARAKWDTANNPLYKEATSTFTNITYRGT
- Sequence (P06756 31-889 limits assumed): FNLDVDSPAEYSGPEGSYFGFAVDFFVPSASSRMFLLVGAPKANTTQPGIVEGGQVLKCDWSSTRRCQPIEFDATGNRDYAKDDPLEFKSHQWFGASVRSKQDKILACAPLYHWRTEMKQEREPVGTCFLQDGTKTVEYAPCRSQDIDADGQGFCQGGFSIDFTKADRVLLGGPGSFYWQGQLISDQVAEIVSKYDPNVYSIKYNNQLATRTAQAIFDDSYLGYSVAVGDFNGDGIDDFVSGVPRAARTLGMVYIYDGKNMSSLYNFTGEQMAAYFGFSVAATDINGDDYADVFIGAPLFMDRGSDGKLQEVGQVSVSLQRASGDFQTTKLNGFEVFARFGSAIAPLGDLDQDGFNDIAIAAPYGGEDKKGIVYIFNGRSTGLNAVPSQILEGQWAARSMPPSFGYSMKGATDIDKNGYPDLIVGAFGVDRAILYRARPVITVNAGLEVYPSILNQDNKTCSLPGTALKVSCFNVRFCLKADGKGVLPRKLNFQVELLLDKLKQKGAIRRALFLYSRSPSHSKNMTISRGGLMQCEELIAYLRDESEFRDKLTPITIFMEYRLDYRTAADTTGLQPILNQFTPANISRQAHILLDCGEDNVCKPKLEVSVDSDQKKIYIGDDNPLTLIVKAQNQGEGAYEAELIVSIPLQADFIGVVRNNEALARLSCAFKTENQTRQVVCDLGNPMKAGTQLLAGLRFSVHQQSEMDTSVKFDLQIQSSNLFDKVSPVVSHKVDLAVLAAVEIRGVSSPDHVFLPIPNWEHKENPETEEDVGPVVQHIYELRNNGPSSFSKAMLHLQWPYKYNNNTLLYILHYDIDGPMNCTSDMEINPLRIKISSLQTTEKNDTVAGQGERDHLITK
- Sequence (P06756 891-1048 limits assumed): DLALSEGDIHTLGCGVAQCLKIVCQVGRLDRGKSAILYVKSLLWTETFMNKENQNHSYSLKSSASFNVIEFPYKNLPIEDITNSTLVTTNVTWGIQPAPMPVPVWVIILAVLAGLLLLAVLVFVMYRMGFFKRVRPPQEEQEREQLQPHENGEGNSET
- procedureText: Inhibition of integrin alpha-V-beta-3-mediated SK-MEL-24 cell adhesion to fibronectin
endpoint: IC50

INSERT INTO measurements (compound, systemtested, endpoint, reportedmeasurement) VALUES
  ('CCCN(C(=O)CCN)C1=C(C)CC(c2ccccc2)N(CCC(=O)O)C1=O (stereo not drawn)', 'Integrin alpha-V/beta-3 (Homo sapiens, UniProt P05106+P06756)', 'IC50', '> 1000 µM'),
  ('CCCN(C(=O)CC(=O)O)C1=C(C)CC(c2ccc(C(=N)N)cc2)N([C@@H](C)c2ccc(OC)cc2)C1=O (stereo partly drawn)', 'Integrin alpha-V/beta-3 (Homo sapiens, UniProt P05106+P06756)', 'IC50', '> 1000 µM');

Moving on to the next compound.
Value lookup for IC50; key = "CCCN(C(=O)CC(=O)O)C1=C(C)C[C@H](c2ccccc2)N([C@@H](C)c2ccc(N)cc2)C1=O"
15.1 µM

Values from ChEMBL document CHEMBL1137514
